# experimentalTarget: PREPL (Mus musculus, UniProt Q8C167)
# Sequence (Q8C167 88-725): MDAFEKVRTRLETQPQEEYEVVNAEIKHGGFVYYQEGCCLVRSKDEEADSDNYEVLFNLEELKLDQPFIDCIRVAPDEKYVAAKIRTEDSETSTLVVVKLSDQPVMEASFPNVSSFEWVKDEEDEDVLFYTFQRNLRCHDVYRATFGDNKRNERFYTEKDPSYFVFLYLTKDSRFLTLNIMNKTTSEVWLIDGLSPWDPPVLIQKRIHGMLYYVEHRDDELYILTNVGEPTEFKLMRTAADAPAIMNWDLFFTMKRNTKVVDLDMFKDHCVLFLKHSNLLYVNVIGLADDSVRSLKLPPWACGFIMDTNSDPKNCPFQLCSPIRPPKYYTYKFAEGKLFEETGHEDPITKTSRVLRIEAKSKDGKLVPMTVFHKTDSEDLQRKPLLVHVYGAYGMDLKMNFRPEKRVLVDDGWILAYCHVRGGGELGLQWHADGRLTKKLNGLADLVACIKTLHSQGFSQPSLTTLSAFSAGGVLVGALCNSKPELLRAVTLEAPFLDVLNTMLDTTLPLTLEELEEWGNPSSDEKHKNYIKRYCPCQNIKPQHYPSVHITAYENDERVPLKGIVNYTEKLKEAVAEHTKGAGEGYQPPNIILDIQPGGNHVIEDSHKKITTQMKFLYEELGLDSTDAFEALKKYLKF
# testDetails: gel-based ABPP IC50 determination with recombinant PREPL and FP-Rh
# Assay type: biochemical
pIC50: −log10 of the molar value.
readoutLabel: pIC50

Reading of pIC50 for CC(C)Cc1[nH]c(=O)c(C#N)c2c1CCC2 [compound 8] with PREPL (Mus musculus, UniProt Q8C167): 4.92 to 5.52

Values were extracted from paper PMC3145007.
